Residues, ends and D or L forms follow the SMILES beside them. *: point of attachment. Cbz = O=C(OCc1ccccc1)*
outcome.measure: melting point

Below, 5 molecules whose answers are already recorded.
| molecule | melting point |
| --- | --- |
| COC(=O)/C=C/C=C/c1ccc(OCc2nc(-c3ccccc3)oc2C)c(OC)c1 | 166 to 167 °C |
| CCc1c(-c2ccc(OC)cc2)c2cc(C(C)=O)c3cc(OC)cc1n32 | 137 to 139 °C |
| CN1C(=O)C2C3CCC(CC3)C2(c2ccc(F)c(F)c2)C1=O (stereo not given) | 133 to 136 °C |
| COC(=O)c1sccc1NC(=O)c1ccccc1SSc1ccccc1C(=O)Nc1ccsc1C(=O)OC | 250 to 252 °C |
| CCCCC(CC)CNCCOc1ccc2ccccc2c1 (stereo not given) | 92 °C |

Prompt line: Which melting point value is on record for O=C(CS(=O)(=O)Cc1ccccc1)CS(=O)(=O)C(c1ccc(Cl)cc1)c1ccc(Cl)cc1 ?
Response line: 72 to 90 °C

Prompt line: Which melting point value is on record for C=C(C)C[C@@H]1C(=O)N(c2ccc(C#N)c(Cl)c2)[C@@H](C)[C@H]1O ?
Response line: 110 to 112 °C

Prompt line: Which melting point value is on record for COC(=O)c1nc(CN2CCOCC2)n(-c2ccc(Cl)cc2C(=O)c2ccccc2Cl)n1 ?
Response line: 141 to 143 °C

Prompt line: Which melting point value is on record for Cc1ccc(C(=O)Nc2ccc(CN3CCOCC3)c(C(F)(F)F)c2)cc1Br ?
Response line: 147 to 151 °C

Prompt line: Which melting point value is on record for COc1ccccc1NC1CN(C(c2ccccc2)c2ccccc2)C1 ?
Response line: 75 to 77 °C

Prompt line: Which melting point value is on record for NCC(CC(=O)O)c1ccc(Cl)c(Cl)c1 (stereo not given) ?
Response line: 202 to 204 °C

Prompt line: Which melting point value is on record for CCOC(=O)c1c(NC(=O)NCC(=O)OC)sc(C)c1C ?
Response line: 151 °C

Prompt line: Which melting point value is on record for CS(=O)(=O)c1ccc(C2=C(c3ccc(F)cc3)C(=O)N(C3CC3)C2)cc1 ?
Response line: 170 to 172 °C

Prompt line: Which melting point value is on record for CCC(C(=O)O)c1ccc2c(c1)Cc1ccccc1S2 (stereo not given) ?
Response line: 74 to 77 °C

Prompt line: Which melting point value is on record for COC(=O)[C@H](Cc1ccccc1)NC(=O)[C@H](CC(=O)O)NC(=O)OCc1ccccc1 (Cbz-Asp-Phe-OMe) ?
Response line: 113 to 116 °C

Prompt line: Which melting point value is on record for O=C(c1cccs1)c1scc(Br)c1Br ?
Response line: 105 to 109 °C

Prompt line: Which melting point value is on record for O=[N+]([O-])c1ccc(C(O)c2ccccn2)cc1 (stereo not given) ?
Response line: 114 to 115 °C

Ref: a melting point compilation (Tetko et al.; mined from patent text by program, amines drawn as free bases though some values may be those of a salt)
